The origin of these recorded values is patent US11498930B2.

# System: phosphorylation level of intracellular protein kinase (ERK) in MOLM13 cells
# assayOverview: Phosphorylated protein kinase (p-ERK) cell experiment (AlphaLISA)
# Type: cell-based
# appliedConditions: Homo sapiens, MOLM-13; p-ERK, MOLM13 cells, 2 hours of cell treatment, Tables 2.1 and 2.2; read-out: IC50
# Method: The inhibitory activities of the compounds on the phosphorylation level of intracellular protein kinase (ERK) were determined by AlphaLISA method. Firstly, the cells were treated with the compounds. […] Thirdly, the phosphorylated extracellular signal-regulated kinase (p-ERK) was detected by AlphaLISA@ SureFire® Ultra™ p-ERK 1/2 (Thr202/Tyr204) kit (Perkin Elmer, ALSU-PERK-A10K). […] The signal was read using AlphaScreen detector on Spectra max i3 (Molecular Devices). […]
measuredEndpoint: IC50

Below, 6 compounds whose answers are already recorded.
[
  {
    "compound": "Nc1cc(Sc2cnc(N3CCC4(CCC[C@H]4N)CC3)n3ncnc23)c(Cl)c(Cl)n1",
    "IC50": "100 to 1000 nM"
  },
  {
    "compound": "CC1(CN)CCN(c2ncc(Sc3cccc(Cl)c3Cl)c3nncn23)CC1",
    "IC50": "100 to 1000 nM"
  },
  {
    "compound": "COc1nccc(Sc2cnc(N3CCC4(CCC[C@H]4N)CC3)n3ccnc23)c1Cl",
    "IC50": "100 to 1000 nM"
  },
  {
    "compound": "Nc1cc(Sc2cnc(N3CCC4(CC3)COC[C@H]4N)n3ccnc23)c(Cl)c(Cl)n1",
    "IC50": "< 100 nM"
  },
  {
    "compound": "COc1ccccc1Sc1cnc(N2CCC3(CCC[C@H]3N)CC2)n2ccnc12",
    "IC50": "100 to 1000 nM"
  },
  {
    "compound": "N[C@@H]1CC(F)(F)CC12CCN(c1ncc(Sc3cccc(Cl)c3Cl)c3nccn13)CC2",
    "IC50": "100 to 1000 nM"
  }
]

Looking for the measured IC50 of "C[C@@H]1OCC2(CCN(c3ncc(Sc4cc(N)ncc4Cl)c4nccn34)CC2)[C@@H]1N" , can you help? < 100 nM

Any idea what IC50 was measured for "Nc1cc(Sc2cnc(N3CCC4(CCC[C@H]4N)CC3)n3ccnc23)c(Cl)cn1" ? < 100 nM

Please report the recorded IC50 for "N[C@@H]1CCOC12CCN(c1ncc(Sc3cccc(Cl)c3Cl)c3nccn13)CC2" . 100 to 1000 nM
